Where do these numbers come from? They come from patent US20230303994.

- TEST_TARGET: pre-pro-insulin glargine
Record form. Attribute: desArg. Fill in for each entry.
One number for each entry, in area %.

Would you mind listing desArg for each of the following proteins?
1. trypsin variant SEQ ID NO: 113 (protein) IVGGYTCAANSIPYQVSLNSGSHRCGGSLINSQWVVSAAHCYKPRIQVRLGEHNIHVLEGNEQFINAAKIITHPNFNGNTLDNDIMLIKLSSPATLNSAVATVSLPTSCAAAGTECLISGWGNTASSGSSYPSLLQCLKAPVLSDSSCKSSYPGQITGNMICVGFLEGGADACQGDSGGPVVCNGQLQGIVSSGYGCAQKNKPGVYTKVCNYVNWIQQTIAAN
2. trypsin variant SEQ ID NO: 77 (protein) IVGGYTCAANSIPYQVSLNSGSHRCGGSLINSQWVVSAAHCYKPRIQVRLGEHNIHVLEGNEQFINAAKIITHPNFNGNTLDNDIMLIKLSSPATLNSHVATVSLPTSCAAAGTECLISGWGNTCSSGSSMPSLLQCLKAPVLSDSSCKSSYPGQITGNMICVGFLEGGKDACQGDSGGPVVCNGQLQGIVSSGYGCAQKNKPGVYTKVCNYVNWIQQTIAAN
3. trypsin variant SEQ ID NO: 82 (protein) IVGGYTCAANSIPYQVSLNSGSHRCGGSLINSQWVVSAAHCYKPRIQVRLGEHNIHVLEGNEQFINAAKIITHPNFNPNTLDNDIMLIKLSSPATLNSHVATVSLPRSCAAAGTECLISGWGNTCSSGSSMPSLLQCLKAPVLSDSSCKSSYPGQITGNMICVGFLEGGKDACQGDSGGPVVCNGQLQGIVSSGYGCAQKNKPGVYTKVCNYVNWIQQTIAAN
4. trypsin variant SEQ ID NO: 94 (protein) IVGGYTCAANSIPYQVSLNSGSHRCGGSLINSQWVVSAAHCYKPRIQVRLGEHNIHVLEGNEQFINAAKIITHPNFNGNTLDNDIMLIKLSSPATLNSNVATVSLPRSCAAAGTECLISGWGNTCSSGSSMPSLLQCLKAPVLSDSSCKSSYPGQITGNMICVGFLEGGADACQGDSGGPVVCNGQLQGIVSSGYGCAQKNKPGVYTKVCNYVNWIQQTIAAN
5. trypsin variant SEQ ID NO: 85 (protein) IVGGYTCAANSIPYQVSLNSGSHRCGGSLINSQWVVSAAHCYKPRIQVRLGEHNIHVLEGNEQFINAAKIITHPNFNPNTLDNDIMLIKLSSPATLNSHVATVSLPTSCAAAGTECLISGWGNTCSSGSSMPSLLQCLKAPVLSDSSCKSSYPGQITGNMICVGFLEGGKDACQGDSGGPVVCNGQLQGIVSSGYGCAQKNKPGVYTKVCNYVNWIQQTIAAN
6. trypsin variant SEQ ID NO: 111 (protein) IVGGYTCAANSIPYQVSLNSGSHRCGGSLINSQWVVSAAHCYKPRIQVRLGEHNIHVLEGNEQFINAAKIITHPNFNPNTLDNDIMLIKLSSPATLNSHVATVSLPTSCAAAGTECLISGWGNTSSSGSSYPSLLQCLKAPVLSDSSCKSSYPGQITGNMICVGFLEGGADACQGDSGGPVVCNGQLQGIVSSGYGCAQKNKPGVYTKVCNYVNWIQQTIAAN

1. 0.5
2. 0.5
3. 0.6
4. 0.8
5. 1.1
6. 0.7

Would you mind listing desArg for each of the following proteins?
1. trypsin variant SEQ ID NO: 79 (protein) IVGGYTCAANSIPYQVSLNSGSHRCGGSLINSQWVVSAAHCYKPRIQVRLGEHNIHVLEGNEQFINAAKIITHPNFNPNTLDNDIMLIKLSSPATLNSHVATVSLPRSCAAAGTECLISGWGNTASSGSSMPSLLQCLKAPVLSDSSCKSSYPGQITGNMICVGFLEGGKDACQGDSGGPVVCNGQLQGIVSSGYGCAQKNKPGVYTKVCNYVNWIQQTIAAN
2. porcine trypsin variant no. 105 (SEQ ID NO: 105) (protein) IVGGYTCAANSIPYQVSLNSGSHRCGGSLINSQWVVSAAHCYKSRIQVRLGEHNIHVLEGNEQFINAAKIITHPNFNPNTLDNDIMLIKLSSPATLNSNVATVSLPTSCAAAGTECLISGWGNTASSGSSYPSLLQCLKAPVLSDSSCKSSYPGQITGNMICVGFLEGGADACQGDSGGPVVCNGQLQGIVSSGYGCAQKNKPGVYTKVCNYVNWIQQTIAAN

1: 0.7; 2: 1
